Experiment: probe aLAP1 signal on lysate-treated microarray – cell lysate, small-molecule microarray, COS7 lysate, primary screen (AID 1124);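 further: lysate comes from COS7 cells expressing LAP1 and is applied at 0.3 µg/mL; score merges spot fluorescence near 667 nm with signal-to-noise over triplicate slides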
Details: probe aLAP1, fluorescence, higher = more signal
Please use fulfilled whenever composite z-score is not below 0.1, and not fulfilled whenever it is.

Given the entry C=C(COC)C(=O)CC[C@@H](OC(C)=O)c1ccccc1OCCO , answer whether its composite z-score meets or surpasses 0.1.
fulfilled

Given the entry CC(C)(C)N1CC=CC23O[C@@H]4C=CCOC(=O)[C@@H]4[C@H]2C(=O)N(CCO)[C@@H]3C1=O (some centres undefined) , answer whether its composite z-score meets or surpasses 0.1.
not fulfilled

Given the entry CC(C)(C)N1CC=CC23O[C@@H]4C=CCCOC(=O)C4[C@H]2C(=O)N(CCCCCCO)[C@@H]3C1=O (some centres undefined) , answer whether its composite z-score meets or surpasses 0.1.
not fulfilled

Given the entry O=C1C2C=CC(C(O)c3cccs3)N(Nc3ccc([N+](=O)[O-])cc3)C2C(=O)N1c1ccccc1 (centres undefined) , answer whether its composite z-score meets or surpasses 0.1.
fulfilled

Given the entry COCCOC(=O)N1C(=O)[C@@]2(c3cc(C#CCNC(N)=O)ccc31)[C@H](C(=O)Nc1nc3ccccc3s1)[C@H]1C(=O)O[C@H](c3ccccc3)[C@H](c3ccccc3)N1[C@@H]2c1ccccc1OCCO , answer whether its composite z-score meets or surpasses 0.1.
fulfilled

Given the entry COC(=O)[C@H](Cc1ccccc1)N1CC2=CCCC=C[C@@H]2[C@H]1[C@H](O)Cc1ccccc1 , answer whether its composite z-score meets or surpasses 0.1.
fulfilled

Given the entry [N-]=[N+]=Nc1ccccc1C[C@]1(C(=O)N2CCOCC2)N=C(c2ccc(OCCCO)cc2)O[C@H]1c1ccccc1N=[N+]=[N-] , answer whether its composite z-score meets or surpasses 0.1.
fulfilled

Given the entry CC(C)=C1C(=O)C(c2ccccc2)=C2CN3C(=O)N(CCc4ccccc4)C(=O)[C@]3(C)[C@H]21 , answer whether its composite z-score meets or surpasses 0.1.
not fulfilled

--- query ---
Given the entry C=C(CCCC)/C(=C/C[C@H](OC(=O)c1ccncc1)c1ccccc1OCCO)c1cc(C(=O)OC)ccc1OC , answer whether its composite z-score meets or surpasses 0.1.
fulfilled

Recorded values, source PubChem BioAssay.
